This collection of values is drawn from ChEMBL document CHEMBL4052831.

Assay: Cmax in posterior eye cup of Brown Norway rat administered 0.3% suspension using 4 uL topical drop to both eyes as single dose by LC-MS/MS analysis
Assay type: ADME
Details: topical or ocular, 4 uL of 0.3% suspension per eye
QUANTITY: Cmax (µM)

a: CC(=O)N1Cc2ncnc(Oc3ccc4c(ccn4C(=O)Nc4cc(C5CC5)on4)c3)c2C[C@@H]1C
b: CNCc1cc(Oc2ccc3c(ccn3C(=O)Nc3cc(C(F)(F)F)n(C)n3)c2)ncn1
IN: Quick one: lower Cmax, a or b ? Record your answer as the label of the chosen record.
OUT: a
